Entry source: paper PMC4724290

Parameter: IC50. Scope: all listed entries.
target: σ2 receptors (Mus musculus, UniProt Q8VD00); assay: In vitro σ2 receptor binding, [^3H]DTG/; design: species or system CD-1 mouse; details: read-out: Sigma2 IC50; 3.0 nM [^3H]DTG/500 nM (+)pentazocine, 25 °C, 60 min
I only need the number, in µM, no unit after it.

Some compounds with recorded IC50:
COc1ccc(CCN2CCN(C/C=C/I)CC2)cc1OC [E-IA-DM-PE-PIPZE]	1.6
C=CCN1CCC2(C)c3cc(O)ccc3CC1C2C (single isomer, unassigned; (+)) [(+)-NANM, (+)-N-allylnormetazocine]	8.99

Please look at the following compound next.
Record C=CCN1CCC2(C)c3cc(O)ccc3CC1C2C (single isomer, unassigned; (-)) [(−)-NANM, (−)-N-allylnormetazocine] , field IC50: 7.46

---

biological target: σ1 receptors (Mus musculus, UniProt O55242); test: In vitro σ1 receptor binding, [^3H]; design: species or system CD-1 mouse; conditions: read-out: Sigma1 Ki
Sequence (O55242 whole entry): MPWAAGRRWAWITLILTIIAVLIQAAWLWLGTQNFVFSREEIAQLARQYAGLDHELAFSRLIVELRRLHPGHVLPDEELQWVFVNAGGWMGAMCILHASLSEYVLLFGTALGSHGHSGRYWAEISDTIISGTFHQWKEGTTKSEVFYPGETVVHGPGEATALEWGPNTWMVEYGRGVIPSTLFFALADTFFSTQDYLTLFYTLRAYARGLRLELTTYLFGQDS
value-type: Ki (nM)
I only need the number, in nM, no unit after it.

Some compounds with recorded Ki:
C=CCN1CCC2(C)c3cc(O)ccc3CC1C2C (single isomer, unassigned; (+)) [(+)-NANM, (+)-N-allylnormetazocine]	13.3
C=CCN1CCC2(C)c3cc(O)ccc3CC1C2C (single isomer, unassigned; (-)) [(−)-NANM, (−)-N-allylnormetazocine]	2550

Record COc1ccc(CCN2CCN(C/C=C/I)CC2)cc1OC , field Ki: 6.73

---

Biological target: σ2 receptors (Mus musculus)
Sequence (Q8VD00 1-176): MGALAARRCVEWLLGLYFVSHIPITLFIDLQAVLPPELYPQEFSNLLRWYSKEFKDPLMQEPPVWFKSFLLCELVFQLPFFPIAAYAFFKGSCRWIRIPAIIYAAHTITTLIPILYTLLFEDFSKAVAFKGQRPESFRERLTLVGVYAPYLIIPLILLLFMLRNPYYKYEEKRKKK
Assay: In vitro σ2 receptor binding, [^3H]DTG/
Parameters: species or system CD-1 mouse
Where a name gives a salt, the structure may show the parent alone.
value-type: IC50 (nM)
I only need the number, in nM, no unit after it.

Some compounds with recorded IC50:
COc1ccc2c(c1)[C@]13CCCC[C@@H]1[C@H](C2)N(C)CC3 [Dextromethorphan, dextromethorphan hydrobromide]	30000
CN1CCN(CCc2ccc(Cl)c(Cl)c2)CC1	843

Please look at the following compound next.
So the reported IC50 for CC(C(O)c1ccc(O)cc1)N1CCC(Cc2ccccc2)CC1 (stereo not drawn) [Ifenprodil, ifenprodil (+)-tartrate] , on σ2 receptors (Mus musculus), turned out to be 2.69

---

Parameter: Ki. Scope: all listed entries.
biological target: σ1 receptors (Mus musculus, UniProt O55242); assay: In vitro σ1 receptor binding, [^3H]; design: species or system CD-1 mouse
Structures can show the parent of a compound that is named as a salt.
I only need the number, in µM, no unit after it.

Some compounds with recorded Ki:
CN1CCN(CCc2ccc(Cl)c(Cl)c2)CC1	0.00598
Cc1ccccc1NC(=N)Nc1ccccc1C	0.112
COc1ccc2c(c1)[C@]13CCCC[C@@H]1[C@H](C2)N(C)CC3 [Dextromethorphan, dextromethorphan hydrobromide]	0.0631

Please look at the following compound next.
Record CC(C(O)c1ccc(O)cc1)N1CCC(Cc2ccccc2)CC1 (stereo not drawn) [Ifenprodil, ifenprodil (+)-tartrate] , field Ki: 0.0227
